# Tested on: SF-295 CNS
# protocol.notes: NCI-60 one-dose screen, 48 h (100 = growth as untreated, 0 = no growth, -100 = all killed)
# condition.description: 10 µM unless noted
Compounds without any hit were thinned out: in the full panel of roughly 83,000, 20% have a hit.
recorded.endpoint: growth (%)
Numeric only. Scale: %

Measured growth, Nc1nc(Nc2ccccc2SSc2ccccc2Nc2nc(N)nc(-c3ccc(I)cc3)n2)nc(-c2ccc(I)cc2)n1 : 47.6

Measured growth, Cc1ccc(C2=NNC(c3sc(Cl)nc3Cl)C2)cc1 (stereo not drawn) : 101

Measured growth, OCCCc1n(Cc2ccc3ccccc3c2)c2ccccc2[n+]1Cc1ccc2ccccc2c1 : 32.8

Measured growth, COc1ccc(C2=NN(C(C)=O)C(c3c(C)nn(-c4ccccc4)c3N3CCOCC3)C2)cc1 (stereo not drawn) : 93.9

Measured growth, Cc1nn(-c2ccccc2)cc1/C=C1\SC(N2CCCCC2)=NC1=O : 128

Measured growth, NC(=N\N=C/Cc1ccccc1)/C(N)=N\N=C\Cc1ccccc1 : 108

Measured growth, COc1ccc(NS(=O)(=O)N2CCCCC2)cc1 : 113

Measured growth, Cn1c(=O)c2[nH]c(=S)n(Cc3ccccc3)c2n(C)c1=O : 118

Measured growth, CN[C@@H]1C(OC2[C@H](O[C@H]3[C@H](O)[C@@H](O)[C@H](N=C(N)N)[C@@H](O)[C@@H]3N=C(N)N)OC(C)[C@]2(O)CO)OC(CO)C(O)C1O (stereo partly drawn) : 103

Measured growth, COc1ccc2c(c1)C(=Nc1cc(OC)c(OC)c(OC)c1)C(=O)N2 : 171

Measured growth, CC1CN(/N=C/c2ccc([N+](=O)[O-])o2)C(=N)O1 (stereo not drawn) : 88.9

Measured growth, CCc1ccc(-c2nc(SCC(=O)NC3CCCCC3)n[nH]2)cc1 : 15.8

Measured growth, CC(=O)[C@H]1CC[C@H]2[C@@H]3C[C@H](C)C4=CC(=O)CC[C@]4(C)[C@H]3C(=O)C[C@]12C : 120

Measured growth, Cc1ccc(NC(=O)c2sc3nc4c(cc3c2N)C(=O)CCC4)cc1 : 47.1

Measured growth, CCOC(=O)CCC(=O)O[C@H]1[C@H](O[C@@H]2[C@@H](C)[C@H](O[C@H]3C[C@@](C)(OC)[C@@H](O)[C@H](C)O3)[C@@H](C)C(=O)O[C@H](CC)[C@@](C)(O)[C@H](O)[C@@H](C)C(=O)[C@H](C)C[C@@]2(C)O)O[C@H](C)C[C@@H]1N(C)C : 104

Measured growth, O=[N+]([O-])c1ccc(N=Nc2c(Cl)cc(O)cc2Cl)cc1 : -55.6

Measured growth, COc1cc2c(cc1OC)C(=O)/C(=C/c1cccc(OCC(=O)c3ccccc3)c1)C2 : 104

Measured growth, COc1ccc2c(c1)CC[C@@H]1[C@@H]2CC[C@]2(C)[C@@H](O)C(=O)C[C@@H]12 : 109

---

Answer each item with its documented growth.
# Tested on: LOX IMVI melanoma
# protocol.notes: NCI-60 one-dose screen, 48 h (100 = growth as untreated, 0 = no growth, -100 = all killed)
# condition.description: 10 µM unless noted
This is part of a sample that, as a whole, favours compounds with a hit. Of some 83,000 tested, about 20% had one in any assay.
Numeric only. Scale: %

Measured growth, Cc1ccc(C(=O)Cc2ccccc2)c(O)c1 : 98

Measured growth, CCSc1nc(Nc2ccc(S(=O)(=O)Nc3ccon3)cc2)c(C#N)c(-c2cccc(Br)c2)n1 : 94.1

Measured growth, CCOc1cc(/C=C/C(=O)C(C(=O)/C=C/c2ccc(OC(=O)CNc3nc4ccccc4[nH]3)c(OCC)c2)C(=O)CNc2nc3ccccc3[nH]2)ccc1OC(=O)CNc1nc2ccccc2[nH]1 : -98.5

Measured growth, CCOC(=O)CCC(=O)O[C@H]1[C@H](O[C@@H]2[C@@H](C)[C@H](O[C@H]3C[C@@](C)(OC)[C@@H](O)[C@H](C)O3)[C@@H](C)C(=O)O[C@H](CC)[C@@](C)(O)[C@H](O)[C@@H](C)C(=O)[C@H](C)C[C@@]2(C)O)O[C@H](C)C[C@@H]1N(C)C : 102

Measured growth, Cc1cc(Cl)ccc1Nc1nc(C(F)(F)F)ccc1C(=O)N/N=C/c1ccc(Cl)cc1 : 0.0613

Measured growth, O=C1Nc2ccc(Cl)cc2/C1=C/c1cccs1 : 86.7

Measured growth, O=C(Nc1ccccc1OC(=O)c1ccccc1)c1ccccc1 : 60.1

Measured growth, O=c1ccn(C2CC=C(CO)O2)c(=O)[nH]1 (stereo not drawn) : 94
